Below, each entry is listed alongside its reported protein stability index.
B1: PRAME (parent)
chain: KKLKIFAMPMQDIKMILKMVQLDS

# Variants of: B1
# Assay Protocol: protein stability index of a GFP-peptide fusion (GPS, HEK-293T) (PSI 1-6); higher = more stable;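 note: lentivirally expressed fusions sorted by FACS into six bins by GFP to DsRed ratio, PSI derived from sequencing read proportions per bin multiplied by bin number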
# Stated Conditions: c terminus: a fixed tail appended
The answer should be a number; do not append a unit.

Examples with their reported protein stability index follow.
KKLKIFAMPMQNIKMILKMVQLDS : 2.5
HKLKIFAMPMQDIKMILKMVQLDS : 3.51
KKLKIFAMPMQDIKVILKMVQLDS : 2.85

Data request: What does the data say about its protein stability index? Entry: KKSKIFAMPMQDIKMILKMVQLDS
Data returned: 2.92

Data request: Try KKLPIFAMPMQDIKMILKMVQLDS next.
Data returned: 2.85

Data request: Please give the result for KKLKIFAMPMQDIKPILKMVQLDS too.
Data returned: 1.81
